- EXPERIMENT SUMMARY: recombinant barcode read abundance after kanamycin selection (control-corrected) (log10(CPM+1)); higher = more efficient recombination; sequences stand for … in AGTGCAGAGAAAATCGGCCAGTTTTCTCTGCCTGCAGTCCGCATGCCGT…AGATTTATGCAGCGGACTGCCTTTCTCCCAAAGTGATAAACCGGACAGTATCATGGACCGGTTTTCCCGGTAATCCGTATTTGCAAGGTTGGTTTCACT; site = the 11-nt target
PARAMETER MEASURED: recombinant barcode read abundance (log10)
Output spec: single numeric token, no unit.

Previously resolved entries follow.
{"RECORD SEQUENCE": "CGGGGTCCTTGGGTTCTAACCTGTTGCTA (site CGGAGTCCTTA)", "NUMERIC VALUE": 1.68}
{"RECORD SEQUENCE": "ATGGTGCCTTGGGTTCTAACCTGTTGCCT (site ATGGTGCCTAG)", "NUMERIC VALUE": 2.65}
{"RECORD SEQUENCE": "ACCGAGACTTGGGTTCTAACCTGTTGCCT (site ACCGCGACTAG)", "NUMERIC VALUE": 0.113}
{"RECORD SEQUENCE": "TAGGCTCCTTGGGTTCTAACCTGTTGCTT (site TAGGCTCCTAA)", "NUMERIC VALUE": 0.277}
{"RECORD SEQUENCE": "CTAGATGCTTGGGTTCTAACCTGTTGCGA (site CTAGATGCTTC)", "NUMERIC VALUE": 1.94}
{"RECORD SEQUENCE": "CGCTTGTCTTGGGTTCTAACCTGTTGCCT (site CGCTAGTCTAG)", "NUMERIC VALUE": 0.0576}
{"RECORD SEQUENCE": "TTGTGAGCTTGGGTTCTAACCTGTTGCGC (site TTGTGAGCTGC)", "NUMERIC VALUE": 1.68}
{"RECORD SEQUENCE": "TCCCACACTTGGGTTCTAACCTGTTGCCA (site TCCCACACTTG)", "NUMERIC VALUE": 1.33}
{"RECORD SEQUENCE": "GATACTGCTTGGGTTCTAACCTGTTGCCT (site GATACTGCTAG)", "NUMERIC VALUE": 0.504}
{"RECORD SEQUENCE": "CACTGGGCTTGGGTTCTAACCTGTTGCAG (site CACTGGGCTCT)", "NUMERIC VALUE": 0.791}

Give the measured recombinant barcode read abundance (log10) of AAAGTCCCTTGGGTTCTAACCTGTTGCCT (site TAAGTCCCTAG) .
0.481

Give the measured recombinant barcode read abundance (log10) of TTGTCGTCTTGGGTTCTAACCTGTTGCCT (site TTGTCGTCTAG) .
1.25

Give the measured recombinant barcode read abundance (log10) of CTTTCGCCTTGGGTTCTAACCTGTTGCCT (site CTGTCGCCTAG) .
0.0968

Give the measured recombinant barcode read abundance (log10) of GTATTAGCTTGGGTTCTAACCTGTTGCCG (site GAATTAGCTCC) .
0.128

====

- EXPERIMENT SUMMARY: recombinant barcode read abundance after kanamycin selection (control-corrected) (log10(CPM+1)); higher = more efficient recombination; sequences stand for … in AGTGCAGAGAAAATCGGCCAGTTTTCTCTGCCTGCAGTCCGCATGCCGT…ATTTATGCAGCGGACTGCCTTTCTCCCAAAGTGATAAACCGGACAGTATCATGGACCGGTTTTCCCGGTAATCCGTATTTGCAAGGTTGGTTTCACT; site = the 11-nt target
Overview of recorded recombinant barcode read abundance (log10) for various sequences
Output spec: single numeric token, no unit.

Previously resolved entries follow.
{"RECORD SEQUENCE": "TGATACCAGTGGGTTCTAACCTGTTGCGTAG [TGATACCCTAC_LTGcore_AG_RTGcore_CT] (site TGATACCCTAC) (LTG core: AG, RTG core: CT)", "NUMERIC VALUE": 0.0989}
{"RECORD SEQUENCE": "TCGCGACCTTGGGTTCTAACCTGTTGCCGAG [TCGCGACCTCG_LTGcore_CT_RTGcore_CT] (site TCGCGACCTCG) (LTG core: CT, RTG core: CT)", "NUMERIC VALUE": 1.15}
{"RECORD SEQUENCE": "AGTCTTAGCTGGGTTCTAACCTGTTGCCAAG [AGTCTTACTTG_LTGcore_GC_RTGcore_CT] (site AGTCTTACTTG) (LTG core: GC, RTG core: CT)", "NUMERIC VALUE": 0.0805}
{"RECORD SEQUENCE": "GGGCGGAGTTGGGTTCTAACCTGTTGCGGAC [GGGCGGACTCC_LTGcore_GT_RTGcore_GT] (site GGGCGGACTCC) (LTG core: GT, RTG core: GT)", "NUMERIC VALUE": 0.199}
{"RECORD SEQUENCE": "GAGTCCACTTGGGTTCTAACCTGTTGCGTAC [GAGTCCACTAC_LTGcore_CT_RTGcore_GT] (site GAGTCCACTAC) (LTG core: CT, RTG core: GT)", "NUMERIC VALUE": 0.0332}
{"RECORD SEQUENCE": "GCGGGACGCTGGGTTCTAACCTGTTGCCTGC [GCGGGACCTAG_LTGcore_GC_RTGcore_GC] (site GCGGGACCTAG) (LTG core: GC, RTG core: GC)", "NUMERIC VALUE": 0.0844}

Give the measured recombinant barcode read abundance (log10) of GAGGCCTGCTGGGTTCTAACCTGTTGCCAAG [GAGGCCTCTTG_LTGcore_GC_RTGcore_CT] (site GAGGCCTCTTG) (LTG core: GC, RTG core: CT) .
0.235

Give the measured recombinant barcode read abundance (log10) of GAGTCCTCTTGGGTTCTAACCTGTTGCCTTG [GAGTCCTCTAG_LTGcore_CT_RTGcore_CA] (site GAGTCCTCTAG) (LTG core: CT, RTG core: CA) .
0.753

Give the measured recombinant barcode read abundance (log10) of GAGGCCTAATGGGTTCTAACCTGTTGCCATT [GAGGCCTCTTG_LTGcore_AA_RTGcore_AA] (site GAGGCCTCTTG) (LTG core: AA, RTG core: AA) .
0.223

Give the measured recombinant barcode read abundance (log10) of GGCTCCCGTTGGGTTCTAACCTGTTGCGGAG [GGCTCCCCTCC_LTGcore_GT_RTGcore_CT] (site GGCTCCCCTCC) (LTG core: GT, RTG core: CT) .
0.546

Give the measured recombinant barcode read abundance (log10) of AGGCGGTTATGGGTTCTAACCTGTTGCTTAG [AGGCGGTCTAA_LTGcore_TA_RTGcore_CT] (site AGGCGGTCTAA) (LTG core: TA, RTG core: CT) .
0.168

====

Overview of recorded recombinant UMI read abundance (log10) for various sequences
- EXPERIMENT SUMMARY: recombinant UMI read abundance after kanamycin selection (control-corrected) (log10(CPM+1)); higher = more efficient recombination; extreme values may be limits of the assay; sequences stand for … in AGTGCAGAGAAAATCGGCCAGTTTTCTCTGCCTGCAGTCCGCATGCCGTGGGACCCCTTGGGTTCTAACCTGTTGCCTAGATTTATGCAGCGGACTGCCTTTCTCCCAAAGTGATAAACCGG…AGGTTGGTTTCACT; site = the 11-nt donor

Previously resolved entries follow.
{"RECORD SEQUENCE": "AGTTTGGCATGGACCGGTTTTCCCGGTAATCCGTATTTGCT (site TGTTTGGCTAG)", "RESULT": 0.0837}
{"RECORD SEQUENCE": "CGCCTTTCATGGACCGGTTTTCCCGGTAATCCGTATTTGAC (site AGCCTTTCTGT)", "RESULT": 0}
{"RECORD SEQUENCE": "ACAATAACATGGACCGGTTTTCCCGGTAATCCGTATTTGCA (site ACAATAACTTG)", "RESULT": 2.65}

Give the measured recombinant UMI read abundance (log10) of TAATGATCATGGACCGGTTTTCCCGGTAATCCGTATTTGGG (site TAATGATCTCC) .
0.594

Give the measured recombinant UMI read abundance (log10) of TCGGATGCATGGACCGGTTTTCCCGGTAATCCGTATTTGAG (site TCGGATGCTCT) .
1.56

Give the measured recombinant UMI read abundance (log10) of ACGAGTTCATGGACCGGTTTTCCCGGTAATCCGTATTTGGA (site ACGAGTTCTTC) .
2.41

Give the measured recombinant UMI read abundance (log10) of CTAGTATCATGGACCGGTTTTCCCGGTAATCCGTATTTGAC (site CTAGTATCTAC) .
0.564

Give the measured recombinant UMI read abundance (log10) of GCTTATACATGGACCGGTTTTCCCGGTAATCCGTATTTGCT (site GCTTATACTAG) .
0

Give the measured recombinant UMI read abundance (log10) of GATTATCCATGGACCGGTTTTCCCGGTAATCCGTATTTGCC (site GATTATCCTTG) .
0

Give the measured recombinant UMI read abundance (log10) of ACCGAATCATGGACCGGTTTTCCCGGTAATCCGTATTTGCA (site ACCGAATCTTG) .
2.16

Give the measured recombinant UMI read abundance (log10) of TACCCGTCATGGACCGGTTTTCCCGGTAATCCGTATTTGCT (site TACCCGTCTAG) .
2.07

Give the measured recombinant UMI read abundance (log10) of GAAAAACCATGGACCGGTTTTCCCGGTAATCCGTATTTGGT (site GACAAACCTAC) .
0

Give the measured recombinant UMI read abundance (log10) of CTGCGTACATGGACCGGTTTTCCCGGTAATCCGTATTTGAT (site CTGCGTACTAT) .
1.81

Give the measured recombinant UMI read abundance (log10) of ATCTATACATGGACCGGTTTTCCCGGTAATCCGTATTTGAA (site ATCTATACTCT) .
0.0128

Give the measured recombinant UMI read abundance (log10) of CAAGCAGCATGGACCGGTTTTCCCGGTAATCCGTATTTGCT (site CAAGCCGCTAG) .
0.0579

Give the measured recombinant UMI read abundance (log10) of AATGTTACATGGACCGGTTTTCCCGGTAATCCGTATTTGCT (site AATGTGACTAG) .
0.00476

Give the measured recombinant UMI read abundance (log10) of GGACACCCATGGACCGGTTTTCCCGGTAATCCGTATTTGTT (site GGCCACCCTAA) .
0.011

Give the measured recombinant UMI read abundance (log10) of ATACGGCCATGGACCGGTTTTCCCGGTAATCCGTATTTGAC (site ATAAGGCCTGT) .
0

Give the measured recombinant UMI read abundance (log10) of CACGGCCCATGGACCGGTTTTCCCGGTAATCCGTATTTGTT (site CACGGGCCTAA) .
0

Give the measured recombinant UMI read abundance (log10) of CCGTTTTCATGGACCGGTTTTCCCGGTAATCCGTATTTGCT (site CCGTTTTCTAG) .
0

Give the measured recombinant UMI read abundance (log10) of TGGGCACCATGGACCGGTTTTCCCGGTAATCCGTATTTGCA (site GGGGCACCTTG) .
0

Give the measured recombinant UMI read abundance (log10) of ATCTATGCATGGACCGGTTTTCCCGGTAATCCGTATTTGAC (site ATCTATTCTGT) .
0
